- System: Bacillus subtilis 65
- Assay details: IO staining of colonies of beta-D-galactosidase positive/negative bacteria (Table IVb)
- Format: cell-based
- Stated conditions: Bacillus subtilis strain 65, b-gal −; 24 h on Nutrient Agar, 150 mg/l indicator, 100 mg/l IPTG
Observation type: G: Growth of colonies

Recorded G: Growth of colonies, per entry:
COc1ccc(C(=O)c2ccccc2-n2cc(O[C@@H]3O[C@H](CO)[C@H](O)[C@H](O)[C@H]3O)c3ccccc32)c(OC)c1 [Indicator I25a]
+
O=C(c1ccccc1)c1ccccc1-n1cc(O[C@@H]2O[C@H](CO)[C@H](O)[C@H](O)[C@H]2O)c2c(Cl)c(Br)ccc21 [Indicator I22a]
−
COc1ccc(C(=O)c2ccccc2-n2cc(O[C@@H]3O[C@H](CO)[C@H](O)[C@H](O)[C@H]3O)c3ccc(Cl)cc32)c(OC)c1 [Indicator I27a]
+
COc1ccc(C(=O)c2ccccc2-n2cc(O[C@@H]3O[C@H](CO)[C@H](O)[C@H](O)[C@H]3O)c3c(Cl)c(Br)ccc32)c(OC)c1 [Indicator I28a]
+/−
CC(=O)c1ccccc1-n1cc(O[C@@H]2O[C@H](CO)[C@H](O)[C@H](O)[C@H]2O)c2ccc(Cl)cc21 [Indicator I16a]
+
Cn1cccc1C(=O)c1ccccc1-n1cc(O[C@@H]2O[C@H](CO)[C@H](O)[C@H](O)[C@H]2O)c2ccc(Cl)cc21 [Indicator I31a]
+

Next molecule, please.
Item O=C(c1ccccc1)c1ccccc1-n1cc(O[C@@H]2O[C@H](CO)[C@H](O)[C@H](O)[C@H]2O)c2ccc(Cl)cc21 [Indicator I21a] has what recorded G: Growth of colonies?
+/−
